experiment: xn = mol fraction of the nth substance listed, in the solute-free solvent; settings: 303.15 K; x2 = 0.8

COMPOUND: Cl.NC(C=O)C(O)C(O)C(O)CO (centres undefined) + O + CCO
solubility (g/100 g solution): 10.7
//
COMPOUND: O=CC(O)C(O)C(O)CO (centres undefined) + CCO + CCCCCC
solubility (g/100 g solution): 2.39
//
COMPOUND: O=c1cc(-c2ccccc2)oc2cc(O)c(O)c(O)c12 + CCO + O
solubility (g/100 g solution): 0.728
//
COMPOUND: Cc1nc(C)c(C)nc1C + CO + CC#N
solubility (g/100 g solution): 61.3
//
COMPOUND: O=CC(O)C(O)C(O)CO (centres undefined) + CO + ClCCl
solubility (g/100 g solution): 18.3
//
COMPOUND: O=CC(O)C(O)C(O)CO (centres undefined) + CC(C)O + CCCCCC
solubility (g/100 g solution): 1.4
//
COMPOUND: Cl.NC(C=O)C(O)C(O)C(O)CO (centres undefined) + O + CO
solubility (g/100 g solution): 15.2
//
COMPOUND: O=CC(O)C(O)C(O)CO (centres undefined) + CCO + ClCCl
solubility (g/100 g solution): 5.4
//
COMPOUND: Cc1nc(C)c(C)nc1C + CCCCO + CC#N
solubility (g/100 g solution): 43.8
